Item-by-item account of TGI
- System: UO-31 renal
- protocol.description: NCI tumour cell line growth inhibition, 48 h

molecule	value.observed
O=C(O)CCCCCCCCC(=O)O	> 500 µM
O=C(NCCN1CCNCC1)c1ccc(Nc2nc3ccccc3c3occc23)cc1	27.9 µM
C=CCNC(=O)N(CCC)CCCC(NC(C)=O)C(=O)NCc1ccccc1 (stereo unspecified)	> 100 µM
COc1ccc(OC)c2sc(N3C(=O)/C(=C/c4cccc([N+](=O)[O-])c4)N=C3c3ccccc3)nc12	> 100 µM
CCOC(=O)C1=CC(C)(C(=O)OCC)Nc2c(nc(N)[nH]c2=O)N1 (stereo unspecified)	> 10 µM

What measured TGI goes with O=S1SC(=S)C2C=CC=CC21 (stereo unspecified) ?
> 100 µM

What about "Cc1nc(-c2cccnc2)sc1C(=O)/C=C/c1cccc([N+](=O)[O-])c1" ?
> 100 µM

What about "O=[N+]([O-])/C(Cl)=C(\NCCN/C(C(Cl)=C(Cl)Cl)=C(/Cl)[N+](=O)[O-])C(Cl)=C(Cl)Cl" ?
> 100 µM

----------
Item-by-item account of TGI
- System: SK-MEL-2 melanoma
- protocol.description: NCI tumour cell line growth inhibition, 48 h

Take a look at these entries with their results.
compound	TGI
C=CC1=C(C)C2=NC1=CC1=NC(=CC3=C(C)C4=C(O)[C@H](C(=O)OC)C(=C5NC(=C2)[C@@H](C)[C@@H]5CCC(=O)O)C4=N3)C(CC)=C1C	> 22.2 µM
CCOC(OC1=C(C#N)CCCC1)C(CC)[Se]c1ccccc1 (stereo not given)	80.8 µM
Cc1cccc(N(CC(=O)O)S(=O)(=O)c2ccccc2)c1	> 100 µM
COc1ccccc1NC(=O)/C(=C/c1ccccc1)C(C)=O	> 100 µM
Clc1ccc2c(c1)N(c1ncnc3ccc(-c4cnc5[nH]ncc5c4)cc13)CC2	> 100 µM

What measured TGI goes with "CC(=Nc1ccc(S(N)(=O)=O)cc1)c1c(O)[nH]c2ccccc12" ?
> 25 µM

What about Cc1cccc(C)c1N1C(=O)C(=O)C(c2nc3ccccc3s2)C(=Nc2cccc3c(=O)[nH][nH]c(=O)c23)C1=O (stereo not given) ?
> 100 µM

What about COc1cc(C(O)c2ccc3c(c2)OCO3)cc(OC)c1OC (stereo not given) ?
> 100 µM

What about "CCOC(=O)c1c(SCCN2CCOCC2)n(-c2ccccc2)c(=S)n(-c2ccccc2)c1=O" ?
> 100 µM

What about CC(C)(C)OC(=O)NC1CCCC1=O (stereo not given) ?
> 100 µM

What about "COc1ccc(C(=O)c2nc3ccccc3n2CC(=O)c2ccc(Cl)cc2)cc1" ?
> 100 µM

----------
- System: MALME-3M melanoma
- protocol.description: NCI tumour cell line growth inhibition, 48 h
Item-by-item account of TGI

molecule	TGI
Cc1c(C(=O)/C=C/c2ccccc2[N+](=O)[O-])[n+](=O)c2ccccc2n1[O-]	27.8 µM
Cc1cc(C)nc(NS(=O)(=O)c2ccc(NC(=O)c3cccc4c(NNc5ccc(S(=O)(=O)N=C(N)N)cc5)c5ccccc5nc34)cc2)n1	> 50 µM
c1ccc2c(c1)CCCC/C2=N/OCC1CO1 (stereo not drawn)	> 100 µM
COC(=O)N1N=C(c2ccccc2)C1c1ccccc1 (stereo not drawn)	> 100 µM
C=CC1=C(C)C2=NC1=CC1=NC(=CC3=C(C)C4=C(O)[C@H](C(=O)OC)C(=C5NC(=C2)[C@@H](C)[C@@H]5CCC(=O)O)C4=N3)C(CC)=C1C	> 100 µM

What measured TGI goes with COc1cccc2c1OCC1Cc3ccccc3OC21 (stereo not drawn) ?
> 100 µM

What about "O=[N+]([O-])c1cc(Cl)ccc1Sc1ccccc1" ?
> 100 µM

What about C=C1C(=O)C23C(O)C1CC[C@H]2C12CCCC(C)(COC(C)=O)[C@H]1[C@H](O)[C@]3(O)OC2 (stereo partly drawn) ?
3.01 µM

----------
Item-by-item account of TGI
- Tested on: MALME-3M melanoma
- protocol.description: NCI tumour cell line growth inhibition, 48 h
Your answer is read as µM, so omit the unit and give the number.

molecule	measured.target	experimental.readout	value.observed
COc1cc(C2c3cc4c(cc3[C@@H](Nc3ccc5c(c3)OCO5)C3COC(=O)[C@H]23)OCO4)cc(OC)c1O (some centres undefined)	MALME-3M melanoma	TGI	10.1
CC(C)Oc1ccc(C(=O)Cn2ccnc2)cc1-n1c(CN2CCN(C(=O)COc3ccc(Cl)cc3)CC2)nc2ccccc2c1=O	MALME-3M melanoma	TGI	30.3
CC1OC(c2ccc3c(c2O)C(=O)C2=C(C3=O)C3(O)C(=O)CC(C)(O)CC3(O)C=C2)CC(O)C1O (centres undefined)	MALME-3M melanoma	TGI	12.8

What measured TGI goes with CC(C)C1=C(O)C2=C(C(=O)C1=O)C1(C)CCCC(C)(C)C1C(O)C2OC=O (centres undefined) ?
23.7

----------
- System: OVCAR-4 ovarian
- protocol.description: NCI tumour cell line growth inhibition, 48 h
experimental.readout: TGI

Take a look at these entries with their results.
compound	value.observed
c1ccc([P+](CCCCCCCC[P+](c2ccccc2)(c2ccccc2)c2ccccc2)(c2ccccc2)c2ccccc2)cc1	> 100 µM
CC(=O)[CH-]C(=O)c1ccccc1.CC(=O)[CH-]C(=O)c1ccccc1.CC1(C)OCC(C2OC3OC(C)(C)OC3C2[O-])O1.CC[O-].[Ti+4] (stereo unspecified)	32.2 µM
CCN(CC)CCO/N=C1\CC[C@H]2[C@@H]3CCc4cc(OC)ccc4[C@H]3CC[C@]12C	22.4 µM
CCOC(=O)C1=CC(C)(C(=O)OCC)Nc2c(nc(N)[nH]c2=O)N1 (stereo unspecified)	> 10 µM
[2H]c1nc(=Nc2cc(NC(=O)C=C)c(N(C)CCN(C)C)cc2OC)[nH]c(-c2cn(C([2H])([2H])[2H])c3ccccc23)c1[2H]	17.3 µM
C=CCN1C(=O)/C(=C/c2ccc(C)cc2)N=C1SC1OC(COC(C)=O)C(OC(C)=O)C(OC(C)=O)C1OC(C)=O (stereo unspecified)	64.1 µM

What measured TGI goes with COc1ccc(NC(C)c2ccncc2)cc1 (stereo unspecified) ?
> 100 µM

What about "Clc1ccc(/C(=C\c2ccccc2)Cn2ccnc2)cc1" ?
> 100 µM

What about "N#Cc1c(-c2ccccc2)c2c([nH]c1=O)-c1cc([N+](=O)[O-])ccc1CCC2" ?
> 100 µM

What about "COc1cc(CNc2nc3ccc(C(F)(F)F)cc3nc2-c2ccccc2)cc(OC)c1OC" ?
> 100 µM

What about "Cc1cccc(N(CC(=O)O)S(=O)(=O)c2ccccc2)c1" ?
> 100 µM

What about "CCN(CC)c1ccc(/C=C/C2=[N+](C)c3ccccc3C2(C)C)c(C)c1" ?
11.2 µM

What about O=S1SC(=S)C2C=CC=CC21 (stereo unspecified) ?
> 100 µM

What about "COc1ccc([C@H]2C=[N+]([O-])O[C@H](OC3CCCC3)[C@@H]2OC(C)=O)cc1OC" ?
> 100 µM

What about "Cn1c(=O)nc2n(-c3ccc(Cl)c(C(F)(F)F)c3)c3ccccc3nc-2c1=O" ?
62.9 µM

What about "CC(C)N1CN(c2ccccc2)C2(CCN(CCCC(=O)c3ccc(F)cc3)CC2)C1=O" ?
> 76 µM

What about "CC(=O)n1nc(-c2ccccc2)n(/N=C/c2ccc([N+](=O)[O-])o2)c1=O" ?
35.6 µM

----------
- System: EKVX NSCLC
- protocol.description: NCI tumour cell line growth inhibition, 48 h; in the data active means GI50 below about 0.43 µM; inactive means the rest
Write down one outcome, taken from true for active, false for inactive

The examples below pair each entry with its known result.
molecule	measured.target	assigned.label
O=C1/C(=C/c2ccc([N+](=O)[O-])cc2)COc2ccc(O)cc21	EKVX NSCLC	false
COC(=O)c1ccc2c(c1)C(=O)c1c-2n(CCCN=[N+]=[N-])c(=O)c2cc([N+](=O)[O-])ccc12	EKVX NSCLC	false
O=C(c1cccs1)C1NO[N+]([O-])=C1c1cccs1 (stereo not given)	EKVX NSCLC	false
COc1cccc2c(=O)c3c(sc12)c(NCCCNCCO)nc1ccccc13	EKVX NSCLC	false
O=C(NCCN1CCNCC1)c1ccc(Nc2nc3ccccc3c3occc23)cc1	EKVX NSCLC	false

Please let me know the test result on file for "COc1ccc(C(=O)c2nc3ccccc3n2CC(=O)c2ccc(Cl)cc2)cc1" .
false

What about "CCn1c(-c2nonc2N)nc2ccncc21" ?
false

What about "COc1cccc(COc2cc(-n3cnc4ccccc43)sc2C(N)=O)c1" ?
false

What about "Clc1ccc2c(c1)N(c1ncnc3ccc(-c4cnc5[nH]ncc5c4)cc13)CC2" ?
true

What about "O=[N+]([O-])c1ccc(-c2cc3c(Nc4ccc(Cl)c(C(F)(F)F)c4)ncnc3s2)cc1" ?
false

----------
- System: DU-145 prostate
- protocol.description: NCI tumour cell line growth inhibition, 48 h; in the data active = GI50 below about 0.43 µM; inactive = the rest
Write down one outcome, taken from True = active, False = inactive

COc1cccc(COc2cc(-n3cnc4ccccc43)sc2C(N)=O)c1 False
COc1cccc2c(=O)c3c(sc12)c(NCCCNCCO)nc1ccccc13 False
COc1ccc(C(=O)c2nc3ccccc3n2CC(=O)c2ccc(Cl)cc2)cc1 False
CCN(CC)c1ccc(/C=C/C2=[N+](C)c3ccccc3C2(C)C)c(C)c1 True
c1cnn2ncc(-c3ccnc(Nc4ccc5c(c4)OCCO5)n3)c2c1 True

Turning now to a further molecule:
Please let me know the test result on file for "COc1ccc(-n2nc(C)c3c(Nc4ccc(NC(=O)Nc5ccc(Cl)c(C(F)(F)F)c5)cc4)ncnc32)cc1" .
False

Hello, the source for this data is PubChem BioAssay (NCI), in case you need it.
